Data credit: PubChem BioAssay AID1159580

assay: chemical genetic growth profiling, strain panel (AID 1159580);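 further: tested at 20 µM; growth read once vehicle control cultures reached saturation at 30 °C; 1 = growth at the plate median or of vehicle wells; lower values mean less growth of the strain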; settings: S. cerevisiae deletion strains, growth OD, locus YOR265W, strain rbl2
Hit rate of the full screen: of about 5,500 compounds, about 2,000 (36%) were called active. Roughly 18% stayed inconclusive and do not appear here. No stated cut-off is given here; in the data, active means normalized growth mostly below about 0.91 (no sharp cut-off); inconclusive means no clear call, values can overlap the other calls; inactive means mostly above about 0.92. The list shows a part of the results.
Bench note: report the call from active, inactive

Study these solved cases before continuing.
compound	labelClass
CN1CCN(CCC=C2c3ccccc3Sc3ccc(S(=O)(=O)N(C)C)cc32)CC1	inactive
CNS(=O)(=O)c1ccc(NC(=O)c2ccccc2C(=O)O)cc1	inactive
COC(=O)[C@]1(C)CC[C@]2(C)CC[C@]3(C)C4=CC=C5C(=CC(=O)C(O)=C5C)[C@]4(C)CC[C@@]3(C)[C@@H]2C1	active
CC1(C)C(=O)[C@@H]2C[C@@]3(O)C4=CC(=O)O[C@@H](c5ccoc5)[C@]4(C)CCC3[C@@](C)(C2=O)[C@H]1CC(=O)O (stereo not given in full)	inactive
NC(=O)N1c2ccccc2C=Cc2ccccc21	inactive
CNCC[C@@H](Oc1ccccc1)c1ccccc1	inactive
O=C(O)[C@H](O)[C@@](O)(Cc1ccc(O)cc1)C(=O)O	inactive
CC(NCCC(c1ccccc1)c1ccccc1)c1ccccc1 (stereo not given)	inactive

Q: GET /call?item= CC(=O)Oc1cc2c(c(C)c1OC(C)=O)CC1OC13C2(C)CCC1(C)C2CC(C)(C(=O)O)CCC2(C)CCC13C (stereo not given) returns the recorded outcome of this test.
A: inactive

Q: GET /call?item= c1ccc([C@H]2CN3CCSC3=N2)cc1 returns the recorded outcome of this test.
A: inactive

====

experiment: chemical genetic growth profiling, strain panel (AID 1159580); settings: S. cerevisiae deletion strains, growth OD, locus YDR388W
The campaign covered roughly 5,500 compounds. About 2,000 (36%) were called active. Roughly 18% stayed inconclusive and do not appear here. Rule as the data show it: active = normalized growth mostly below about 0.91 (no sharp cut-off); inconclusive = no clear call, values can overlap the other calls; inactive = mostly above about 0.92. Some of the results follow.
Bench note: report the call from active, inactive

Study these solved cases before continuing.
compound	labelClass
OCCN1CCN(CCCN2c3ccccc3Sc3ccc(C(F)(F)F)cc32)CC1	active
CC(=O)O[C@H]1CC[C@]2(C)C3CC(=O)[C@]4(C)C(C(C)=O)=CCC4C3CC[C@H]2C1 (stereo partly drawn)	inactive
O=c1oc2c(O)c(O)cc3c(=O)oc4c(O)c(O)cc1c4c23	active
CC(=O)OC1CCC2(C)C3CC(=O)C4(C)C(CC5OC6(CCC(C)CO6)[C@@H](C)C54)C3CC[C@H]2C1 (stereo partly drawn)	inactive
COC(=O)[C@]1(C)CC[C@]2(C)CC[C@]3(C)C4=CC=C5C(=CC(=O)C(O)=C5C)[C@]4(C)CC[C@@]3(C)[C@@H]2C1	inactive

Q: GET /call?item= CC(=O)O[C@@H]1CC[C@]2(C)C3CC[C@]4(C)C(=O)CCC4C3CC[C@H]2C1 (stereo partly drawn) returns the recorded outcome of this test.
A: inactive

Q: GET /call?item= O=C(OC[C@H]1O[C@H](OC(=O)c2cc(O)c(O)c(OC(=O)c3cc(O)c(O)c(O)c3)c2)[C@H](OC(=O)c2cc(O)c(O)c(OC(=O)c3cc(O)c(O)c(O)c3)c2)[C@@H](OC(=O)c2cc(O)c(O)c(OC(=O)c3cc(O)c(O)c(O)c3)c2)[C@@H]1OC(=O)c1cc(O)c(O)c(OC(=O)c2cc(O)c(O)c(O)c2)c1)c1cc(O)c(O)c(OC(=O)c2cc(O)c(O)c(O)c2)c1 returns the recorded outcome of this test.
A: active

Q: GET /call?item= COc1c2occc2c(OC)c2c(=O)cc(C)oc12 returns the recorded outcome of this test.
A: inactive

Q: GET /call?item= CC1=C(O)C(=O)C=C2C1=CC=C1[C@@]2(C)CC[C@@]2(C)[C@@H]3C[C@](C)(C(=O)O)CC[C@]3(C)CC[C@]12C returns the recorded outcome of this test.
A: active

Q: GET /call?item= O=C(O)c1cc(=O)c2c(Cl)cc(Cl)cc2[nH]1 returns the recorded outcome of this test.
A: inactive

Q: GET /call?item= COc1ccc2c(=O)ccoc2c1 returns the recorded outcome of this test.
A: inactive

====

assay: chemical genetic growth profiling, strain panel (AID 1159580);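 further: tested at 20 µM; growth read once vehicle control cultures reached saturation at 30 °C; 1 = growth at the plate median or of vehicle wells; lower values mean less growth of the strain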; settings: S. cerevisiae deletion strains, growth OD, locus YDL074C, strain BRE1, active compounds read low
About 2,000 (36%) of roughly 5,500 compounds were called active. About 18% were inconclusive and are not listed. The list shows a part of the results.
A collection of compounds and their measured normalized growth
Answer with a bare number; do not write a unit.

> print(dat)
                                   compound  numericresult
1  COC1(C)CCC2OC2(C)CCC2C1CC2(C)C (stereo unspecified)           1.01
2       NC1CC1c1ccccc1 (stereo unspecified)           1.05

So, COc1cc(NS(=O)(=O)c2ccc(N)cc2)ncn1 ? Its normalized growth was 0.966

So, CC(=O)Oc1cccc2c1C(=O)c1c(OC(C)=O)cc(C(=O)O)cc1C2=O ? Its normalized growth was 1.03

So, C#C[C@]1(O)CCC2C3CCC4=Cc5oncc5C[C@]4(C)C3CC[C@@]21C (stereo partly specified) ? Its normalized growth was 0.725

So, O=C(O)[C@H](O)[C@@](O)(Cc1ccc(O)cc1)C(=O)O ? Its normalized growth was 1.06

So, NC(=O)N1c2ccccc2C=Cc2ccccc21 ? Its normalized growth was 1.03

So, CCOC([O-])=Nc1c[n+](N2CCOCC2)no1 ? Its normalized growth was 1.04

So, CC(=O)OCC(=O)[C@@]1(O)CCC2C3CCC4=CC(=O)CC[C@]4(C)C3[C@@H](O)C[C@@]21C (stereo partly specified) ? Its normalized growth was 1.01

So, CC1(C)C(=O)[C@@H]2C[C@@]3(O)C4=CC(=O)O[C@@H](c5ccoc5)[C@]4(C)CCC3[C@@](C)(C2=O)[C@H]1CC(=O)O (stereo partly specified) ? Its normalized growth was 1.02

So, COc1ccc(C2C(=O)c3ccccc3C2=O)cc1 ? Its normalized growth was 0.994

So, CC(=O)OCC1=C(C(=O)O)N2C(=O)[C@@H](NC(=O)CCCC(N)C(=O)O)C2SC1 (stereo partly specified) ? Its normalized growth was 1

So, CC1=CC(=O)C2=C(C)CC(O)C3C(C)C(=O)OC3C12 (stereo unspecified) ? Its normalized growth was 1.06

====

A collection of compounds and their measured normalized growth
assay: chemical genetic growth profiling, strain panel (AID 1159580);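 further: tested at 20 µM; growth read once vehicle control cultures reached saturation at 30 °C; 1 = growth at the plate median or of vehicle wells; lower values mean less growth of the strain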; conditions: S. cerevisiae deletion strains, growth OD, locus YDL108W, strain KIN28, active compounds read low
Screen size: about 5,500 compounds; about 2,000 (36%) were called active. Another 18% or so got no clear call; they are omitted. This is one part of the list.
Answer with a bare number; do not write a unit.

Worked set:
> print(dat)
                                   compound        readoutkind  numericresult
1  O=C(Nc1cc2c(s1)-c1cc(Cl)ccc1SC2)Oc1ccccc1  normalized growth          0.986
2     CC(=O)c1ccccc1C(=O)c1ccc(C(C)(C)C)cc1  normalized growth          0.964
3  C/C(=N/NC(=O)c1ccc(C(C)(C)C)cc1)c1ccccc1O  normalized growth          0.972
4  CC(C)(C)C(=O)c1sc2sc(C(=O)C(C)(C)C)c(N)c2c1N  normalized growth          0.989
5    Cn1nc(-c2ccccc2)c(O)c(N=Nc2ccccc2)c1=O  normalized growth          0.962
6  CC(C)(C)c1ccc(C(=O)NNC(=S)Nc2ccc(Cl)cc2)cc1  normalized growth           0.96

So, O=C(NNC(=S)Nc1ccc(Cl)cc1)c1ncc(C(F)(F)F)cc1Cl ? Its normalized growth was 0.986

So, O=c1c(-c2ccccc2)c(O)c2cccc3c4ccccc4n1c23 ? Its normalized growth was 0.247

So, S=C(N/N=C\c1cccs1)NC1CC2CCC1C2 (stereo unspecified) ? Its normalized growth was 0.951

So, Cc1ccc(OCc2n[nH]c(=S)n2Cc2ccccc2)c2c1CCC2 ? Its normalized growth was 0.973

So, O=c1c(-c2ccccc2)c(O)c2cccc3c4c(n1c23)CCCC4 ? Its normalized growth was 0.924

====

test: chemical genetic growth profiling, strain panel (AID 1159580);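 further: tested at 20 µM; growth read once vehicle control cultures reached saturation at 30 °C; 1 = growth at the plate median or of vehicle wells; lower values mean less growth of the strain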; settings: S. cerevisiae deletion strains, growth OD, locus YJL092W, strain hpr5, active compounds read low
In all, about 5,500 compounds went through this assay and about 2,000 (36%) were called active. Not shown: some 18% with an inconclusive outcome. The list shows a part of the results.
readoutKind: normalized growth
Answer with a bare number; do not write a unit.

Worked set:
molecule	normalized growth
CC[C@@H](CO)NC(=O)[C@@H]1C=C2c3cccc4[nH]cc(c34)C[C@H]2N(C)C1	0.995
CC(=O)[O][Hg][c]1ccccc1	0.0589
CN1C(=O)CCS(=O)(=O)C1c1ccc(Cl)cc1 (stereo not given)	0.997
O=c1c(O)c(-c2ccc(O)c(O)c2)oc2cc(O)ccc12	0.995
C#CC1(O)CCC2C3CCC4=CC(=O)CCC4(C)C3CCC21C (stereo not given)	0.977
C[C@]12CCC(=O)C=C1CCC1C2[C@@H](O)C[C@@]2(C)C1CC[C@]2(O)C(=O)COC(=O)CCC(=O)O (stereo not given in full)	1.02

So, OCc1c[nH]c2ccccc12 ? Its normalized growth was 0.979

So, O=C(OC[C@H]1O[C@H](OC(=O)c2cc(O)c(O)c(OC(=O)c3cc(O)c(O)c(O)c3)c2)[C@H](OC(=O)c2cc(O)c(O)c(OC(=O)c3cc(O)c(O)c(O)c3)c2)[C@@H](OC(=O)c2cc(O)c(O)c(OC(=O)c3cc(O)c(O)c(O)c3)c2)[C@@H]1OC(=O)c1cc(O)c(O)c(OC(=O)c2cc(O)c(O)c(O)c2)c1)c1cc(O)c(O)c(OC(=O)c2cc(O)c(O)c(O)c2)c1 ? Its normalized growth was 0.866

So, CC1(C)S[C@@H]2[C@H](NC(=O)Cc3ccccc3)C(=O)N2[C@H]1C(=O)O ? Its normalized growth was 1.03

So, c1ccc2c(Cc3c[nH]c4ccccc34)c[nH]c2c1 ? Its normalized growth was 0.635

So, Cc1onc(-c2ccccc2Cl)c1C(=O)N[C@@H]1C(=O)N2[C@@H]1SC(C)(C)[C@@H]2C(=O)O ? Its normalized growth was 1.03

So, CC(=O)OCC(=O)[C@@]1(O)CCC2C3CCC4=CC(=O)CC[C@]4(C)C3[C@@H](O)C[C@@]21C (stereo not given in full) ? Its normalized growth was 1.02

So, C[C@]12CCC(=O)C=C1CCC1C2C(=O)C[C@@]2(C)C1CC[C@]2(O)C(=O)CO (stereo not given in full) ? Its normalized growth was 1.01

So, CC1(C)S[C@@H]2[C@H](NC(=O)[C@H](C(=O)O)c3cccs3)C(=O)N2[C@H]1C(=O)O ? Its normalized growth was 1

So, CC(=O)O[C@H]1CC[C@]2(C)C3CC(=O)[C@]4(C)C(C(C)=O)=CCC4C3CC[C@H]2C1 (stereo not given in full) ? Its normalized growth was 0.988
